Where a name gives a salt, the structure may show the parent alone.
RESULT_TYPE: melting point

Known results for molecules:
CCCN1Cc2cccc3c2C(C1)c1ccc(O)c(O)c1O3 (stereo not shown) [Compound 16c]: 259 to 264 °C (dec.)
Cc1ccc2c(c1)CN[C@H]1CCc3cc(O)c(O)cc3[C@H]21.Cl (relative stereo): 190 °C (dec.)
C=CCN1Cc2cccc3c2C(C1)c1ccc(O)c(O)c1O3 (stereo not shown) [Compound 16b]: 251 to 253 °C (dec.)
Br.Oc1ccc2c(c1O)Oc1cccc3c1C2CNC3 (stereo not shown) [Compound 16a]: 298 to 302 °C (dec.)
Oc1ccc2c(c1O)Cc1cccc3c1C2CNC3 (stereo not shown) (as salt: hydrobromid): 258 °C (dec.)
Cc1cccc2c1CN[C@H]1CCc3cc(O)c(O)cc3[C@H]21.Cl (relative stereo): 195 °C (dec.)

Inquiry: Quick check: melting point of Cc1ccc2c(c1)[C@H]1c3cc(O)c(O)cc3CC[C@@H]1NC2.Cl (relative stereo) ?
Reply text: 190 °C (dec.)
